Target: PDE7A1 (Homo sapiens (Human))
Sequence (Q13946 whole entry, species assumed): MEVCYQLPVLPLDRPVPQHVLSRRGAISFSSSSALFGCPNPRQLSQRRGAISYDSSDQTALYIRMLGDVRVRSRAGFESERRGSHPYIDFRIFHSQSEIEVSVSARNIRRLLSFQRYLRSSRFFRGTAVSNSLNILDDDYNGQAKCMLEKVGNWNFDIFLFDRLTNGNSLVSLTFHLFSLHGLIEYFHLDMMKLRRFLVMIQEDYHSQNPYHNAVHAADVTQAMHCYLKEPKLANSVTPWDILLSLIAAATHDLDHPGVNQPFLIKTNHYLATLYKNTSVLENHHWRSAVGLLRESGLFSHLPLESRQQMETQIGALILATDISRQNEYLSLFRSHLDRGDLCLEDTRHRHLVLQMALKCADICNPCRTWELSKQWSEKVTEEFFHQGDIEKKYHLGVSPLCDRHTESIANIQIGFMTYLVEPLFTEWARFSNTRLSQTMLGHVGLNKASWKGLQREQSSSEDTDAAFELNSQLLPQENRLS
Assay: PDE7 inhibition, commercial phosphodiesterase activity kit ([3H]cAMP, SPA)
Type: biochemical
Details: Table 3; read-out: PDE inhibitory activity PDE7A CI50
pIC50: −log10 of the molar value.
property: pIC50

INSERT INTO results (structure_smiles_string, test_value) VALUES
  ('CC(C)(C)CSc1nc2ccccc2c(=O)n1-c1ccccc1', 7.00);

---

Assay: in vivo
Conditions: C57BL/6, mouse, ip, 10 mg/kg
property: Kp

INSERT INTO results (structure_smiles_string, test_value) VALUES
  ('CC(C)(C)CSc1nc2ccccc2c(=O)n1-c1ccccc1', 2.45);

---

Experiment: Pharmacokinetic studies in mice: exposure in plasma and brain
Details: C57BL/6, mouse, plasma and brain, ip, 10 mg/kg
property: Tmax (min)

INSERT INTO measurements (structure_smiles_string, property, unit_text, test_value) VALUES
  ('S=c1[nH]c2ccccc2c(=S)n1-c1ccccc1', 'Tmax', 'min', 15);

---

Target: hERG channel (Homo sapiens (Human))
Sequence (Q12809 whole entry): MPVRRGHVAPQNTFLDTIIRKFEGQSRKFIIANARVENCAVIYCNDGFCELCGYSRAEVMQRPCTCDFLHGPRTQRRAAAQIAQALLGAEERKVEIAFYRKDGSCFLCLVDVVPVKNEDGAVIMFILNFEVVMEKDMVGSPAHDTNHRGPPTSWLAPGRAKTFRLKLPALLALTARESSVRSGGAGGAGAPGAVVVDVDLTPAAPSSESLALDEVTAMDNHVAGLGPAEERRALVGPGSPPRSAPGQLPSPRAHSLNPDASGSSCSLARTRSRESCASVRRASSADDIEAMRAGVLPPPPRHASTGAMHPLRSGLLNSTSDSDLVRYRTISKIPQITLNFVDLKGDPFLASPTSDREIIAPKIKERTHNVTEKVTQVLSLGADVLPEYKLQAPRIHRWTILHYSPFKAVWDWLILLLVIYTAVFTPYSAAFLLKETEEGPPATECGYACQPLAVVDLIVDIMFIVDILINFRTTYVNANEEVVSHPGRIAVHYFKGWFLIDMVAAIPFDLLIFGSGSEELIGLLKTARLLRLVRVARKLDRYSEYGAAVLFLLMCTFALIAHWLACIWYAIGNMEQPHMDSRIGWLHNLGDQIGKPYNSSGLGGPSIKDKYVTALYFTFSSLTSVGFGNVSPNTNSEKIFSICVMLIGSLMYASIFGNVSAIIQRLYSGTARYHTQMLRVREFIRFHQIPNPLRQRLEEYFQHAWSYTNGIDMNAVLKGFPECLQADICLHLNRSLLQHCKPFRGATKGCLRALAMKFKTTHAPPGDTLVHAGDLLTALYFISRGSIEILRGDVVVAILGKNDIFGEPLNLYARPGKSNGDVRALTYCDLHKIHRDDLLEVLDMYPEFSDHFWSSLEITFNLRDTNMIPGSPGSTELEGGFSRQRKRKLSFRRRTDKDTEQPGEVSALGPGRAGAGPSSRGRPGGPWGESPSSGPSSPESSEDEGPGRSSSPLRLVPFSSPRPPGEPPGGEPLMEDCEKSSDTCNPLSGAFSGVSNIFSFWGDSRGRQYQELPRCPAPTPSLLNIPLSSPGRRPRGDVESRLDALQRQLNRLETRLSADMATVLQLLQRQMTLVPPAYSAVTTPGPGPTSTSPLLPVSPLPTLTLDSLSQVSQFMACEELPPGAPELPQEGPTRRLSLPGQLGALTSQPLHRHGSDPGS
Test: Toxicity on the cardiac hERG channel, FluxOR thallium fluorescence assay in HEK293 cells
Assay type: cell-based
Settings: stimulated the opening of the potassium channel; HEK293 hERG, FluxOR
property: IC50

INSERT INTO measurements (structure_smiles_string, property, test_value) VALUES
  ('S=c1[nH]c2ccccc2c(=S)n1-c1ccccc1', 'IC50', '5.19 µM');

---

Experiment: in vivo
Details: C57BL/6, mouse, po, 10 mg/kg
property: Tmax (min)

INSERT INTO assay_data (molecule, test_value) VALUES
  ('CC(C)(C)CSc1nc2ccccc2c(=O)n1-c1ccccc1 [Compound 5]', 30);

---

Assay: in vitro
Settings: PAMPA, pH 7.4
property: Papp at 2.5 h (×10⁻⁶ cm/s)

INSERT INTO measurements (structure_smiles_string, test_value) VALUES
  ('Cc1cccc2c(=O)n(-c3c(F)cccc3F)c(SCC3CC3)nc12', 1.3),
  ('O=c1c2ccccc2nc(SCc2cccnc2)n1-c1ccccc1', 18.6),
  ('O=c1[nH]c(SCc2cccnc2)nc2c(Cl)cccc12', 12.1),
  ('CCSc1nc2ccccc2c(=O)n1-c1ccccc1', 7.9),
  ('Cc1ccccc1-n1c(SCC(C)(C)C)nc2ccccc2c1=O', 3.9);

---

Assay: in vivo
Details: C57BL/6, mouse, ip, 10 mg/kg
property: Tmax (min)

INSERT INTO assay_data (molecule, property, test_value) VALUES
  ('CC(C)(C)CSc1nc2ccccc2c(=O)n1-c1ccccc1 [Compound 5]', 'Tmax', 15);

---

Molecular target: PDE7A1 (Homo sapiens (Human))
Assay: PDE7 inhibition, commercial phosphodiesterase activity kit ([3H]cAMP, SPA)
Type: biochemical
Conditions: read-out: PDE7A IC50
Please use condition met for IC50 under 2000 nM and condition not met for everything else, ties included.

INSERT INTO measurements (structure_smiles_string, discrete_label) VALUES
  ('O=c1c2ccccc2nc(SCc2ccccn2)n1-c1ccccc1', 'condition met'),
  ('O=c1c2ccccc2nc(SCc2ccncc2)n1-c1ccccc1', 'condition not met'),
  ('O=c1c2ccccc2nc(SCC2CC2)n1-c1ccccc1Br', 'condition not met'),
  ('CCSc1nc2ccccc2c(=O)n1-c1c(F)cccc1F', 'condition not met'),
  ('Cc1ccccc1-n1c(SCC(C)(C)C)nc2ccccc2c1=O', 'condition met'),
  ('O=c1c2ccccc2nc(SCc2cccnc2)n1-c1ccccc1', 'condition met'),
  ('CCSc1nc2ccccc2c(=O)n1-c1ccccc1', 'condition not met'),
  ('CC(C)(C)CSc1nc2ccccc2c(=O)n1-c1ccccc1', 'condition met'),
  ('CC(C)(C)CSc1nc2c(Cl)cccc2c(=O)n1-c1ccccc1', 'condition met'),
  ('Cc1cccc2c(=O)n(-c3c(F)cccc3F)c(SCC3CC3)nc12', 'condition not met');
